Assay: activity coefficient (dimensionless); of the first substance listed, at infinite dilution; xn = mol fraction of the nth substance listed
Settings: 368.15 K; 101 kPa; Liquid; Chromatography; x1 = 0
PROPERTY: activity coefficient

## Task Determine its reported activity coefficient: Cc1ccccc1 [toluene] + CCCC[N+]1(C)CCOCC1.N#C[C-](C#N)C#N
## Result 2.43

## Task Determine its reported activity coefficient: C=CCCCCCCCC [1-decene] + CCCC[N+]1(C)CCOCC1.N#C[C-](C#N)C#N
## Result 81.4

## Task Determine its reported activity coefficient: C1CCCCCCC1 [cyclooctane] + CCCC[N+]1(C)CCOCC1.N#C[C-](C#N)C#N
## Result 25.1

## Task Determine its reported activity coefficient: COC(C)(C)C [2-methoxy-2-methylpropane] + CCCC[N+]1(C)CCOCC1.N#C[C-](C#N)C#N
## Result 5.78
